Assign Kb to each entry below.
targetUnderTest: human OX2 receptor (Homo sapiens, UniProt O43614)
Sequence (O43614 1-444): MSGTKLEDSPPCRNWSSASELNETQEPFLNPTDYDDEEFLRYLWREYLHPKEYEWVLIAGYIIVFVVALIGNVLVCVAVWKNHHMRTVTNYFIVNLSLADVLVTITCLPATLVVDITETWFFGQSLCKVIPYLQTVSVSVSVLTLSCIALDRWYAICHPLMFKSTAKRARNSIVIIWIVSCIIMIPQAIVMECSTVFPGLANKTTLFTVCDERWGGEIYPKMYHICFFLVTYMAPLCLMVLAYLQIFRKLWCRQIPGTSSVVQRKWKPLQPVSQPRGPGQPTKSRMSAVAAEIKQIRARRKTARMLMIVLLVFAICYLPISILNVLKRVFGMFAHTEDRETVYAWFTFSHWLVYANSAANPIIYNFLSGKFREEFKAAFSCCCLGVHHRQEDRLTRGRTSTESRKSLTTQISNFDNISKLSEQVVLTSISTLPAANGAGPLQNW
procedureSummary: IPone accumulation assay, CHO cells expressing OX2 (antagonism of orexin A)
Assay type: cell-based
conditionSet: CHO human OX2, orexin A EC80 challenge (40 nM), read-out: fpKb average OX2 (converted)

| compound | targetUnderTest | attributeMeasured | reported |
| --- | --- | --- | --- |
| COc1cc(F)c(CN2C(=O)N(c3cc(S(C)(=O)=O)c(OC)nc3OC)CCc3c(F)cccc32)c(F)c1 | human OX2 receptor (Homo sapiens, UniProt O43614) | Kb | > 3980 nM |
| Cc1ncc(C2CCc3c(F)cccc3N(Cc3c(F)cc(Br)cc3F)C2=O)cc1C(C)(F)F (single isomer, unassigned) [Example 36] | human OX2 receptor (Homo sapiens, UniProt O43614) | Kb | > 2000 nM |
| [2H]C([2H])([2H])OCc1cc(F)c(CN2C(=O)N(c3cnc(OC)c(C(C)(F)F)c3)CCc3c(F)cccc32)c(F)c1 | human OX2 receptor (Homo sapiens, UniProt O43614) | Kb | > 2000 nM |
| COc1ncc(C2CCc3c(F)cccc3N(Cc3c(F)cc(Cl)cc3F)C2=O)cc1S(C)(=O)=O (single isomer, unassigned) | human OX2 receptor (Homo sapiens, UniProt O43614) | Kb | > 1000 nM |
| COc1cc(F)c(CN2C(=O)N(c3cnc(OC)c(S(C)(=O)=O)c3)CCc3c(F)cccc32)c(F)c1F | human OX2 receptor (Homo sapiens, UniProt O43614) | Kb | > 3160 nM |

Would you mind giving Kb for every compound in the list below?
1. COc1ncc(C2CCc3c(F)cccc3N(Cc3c(F)cc(Br)cc3F)C2=O)cc1C(C)(F)F (single isomer, unassigned)
2. COc1ncc(N2CCc3c(F)cccc3N(Cc3c(C)cc(Br)cc3F)C2=O)cc1S(C)(=O)=O

["> 1000 nM", "> 2510 nM"]

###

targetUnderTest: human OX1 receptor (Homo sapiens)
procedureSummary: IPone accumulation assay, CHO cells expressing OX1 (antagonism of orexin A)
Type: cell-based
conditionSet: IPone accumulation, CHO human OX1, orexin A EC80 challenge (~20 nM); read-out: fpKb average OX1 (converted)
Assign Kb to each entry below.
One number for each entry, in µM.

Worked set:
| mol | reported |
| --- | --- |
| [2H]C([2H])([2H])OCc1cc(F)c(CN2C(=O)N(c3cnc(OC)c(C(C)(F)F)c3)CCc3c(F)cccc32)c(F)c1 | 0.00158 |
| COc1ncc(N2CCc3c(F)cccc3N(Cc3c(F)cc(Br)cc3F)C2=O)cc1S(C)(=O)=O | 0.0794 |
| [2H]C([2H])([2H])Oc1ncc(N2CCc3c(F)cccc3N(Cc3c(F)cc(Br)cc3F)C2=O)cc1C(C)(F)F | 0.02 |

Now for a further molecule.
Enter measured Kb, system human OX1 receptor (Homo sapiens), for the molecule shown: `COc1ncc(N2CCc3c(F)cccc3N(Cc3c(F)cc(Br)cc3F)C2=O)cc1C(C)(F)F` 0.0501

###

Assign Kb to each entry below.
targetUnderTest: human OX1 receptor (Homo sapiens, UniProt O43613)
Sequence (O43613 whole entry): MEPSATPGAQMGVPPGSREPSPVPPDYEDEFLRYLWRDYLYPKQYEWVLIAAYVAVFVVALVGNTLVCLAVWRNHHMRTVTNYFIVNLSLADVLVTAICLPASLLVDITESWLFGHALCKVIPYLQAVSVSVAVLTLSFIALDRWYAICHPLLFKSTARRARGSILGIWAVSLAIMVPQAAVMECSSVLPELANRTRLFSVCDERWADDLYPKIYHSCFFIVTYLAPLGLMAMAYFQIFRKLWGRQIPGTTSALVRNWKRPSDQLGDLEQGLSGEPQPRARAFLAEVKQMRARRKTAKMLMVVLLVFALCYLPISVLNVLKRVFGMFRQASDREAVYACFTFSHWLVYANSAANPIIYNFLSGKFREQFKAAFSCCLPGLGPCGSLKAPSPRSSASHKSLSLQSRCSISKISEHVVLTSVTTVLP
procedureSummary: IPone accumulation assay, CHO cells expressing OX1 (antagonism of orexin A)
Format: cell-based
conditionSet: IPone accumulation, CHO human OX1, orexin A EC80 challenge (~20 nM); read-out: fpKb average OX1 (converted)
One number for each entry, in nM.

| molecule | Kb (nM) |
| --- | --- |
| COc1ccc(CN2C(=O)N(c3cnc(OC)c(C(C)(F)F)c3)CCc3c(F)cccc32)c(F)c1 [Example 4] | 15.8 |

Would you mind giving Kb for every molecule in the list below?
1. Cc1cc(C)c(S(C)(=O)=O)cc1N1CCc2ccccc2N(Cc2c(F)cc(Br)cc2F)C1=O [Example 29]
2. COc1ncc(C2CCc3c(F)cccc3N(Cc3c(F)cc(Br)cc3F)C2=O)cc1S(C)(=O)=O (racemic) [Example 19]
3. COCc1cc(F)c(CN2C(=O)N(c3cnc(C)c(C(C)(F)F)c3)CCc3c(F)cccc32)c(F)c1 [Example 33]

[39.8, 31.6, 15.8]

###

targetUnderTest: human OX1 receptor (Homo sapiens)
procedureSummary: [3H]-radioligand binding assay, OX1
Set-up: made in house; host or cells: SF21 insect cells (baculovirus; P0 virus made in SF9)
conditionSet: [3H]-radioligand binding, human OX1 membranes; read-out: pKi average OX1 (converted)
Assign Ki to each entry below.
Remember to follow the number with its unit.

Worked set:
| compound | targetUnderTest | Ki |
| --- | --- | --- |
| [2H]C([2H])([2H])Oc1ncc(N2CCc3c(F)cccc3N(Cc3c(F)cc(Br)cc3F)C2=O)cc1C(C)(F)F | human OX1 receptor (Homo sapiens) | 0.631 nM |
| Cc1ncc(C2CCc3c(F)cccc3N(Cc3cc(C#N)ccc3F)C2=O)cc1C(C)(F)F (single isomer, unassigned) | human OX1 receptor (Homo sapiens) | 1.26 nM |
| COCc1cc(F)c(CN2C(=O)N(c3cc(C(C)(F)F)c(OC)nc3OC)CCc3c(F)cccc32)c(F)c1 | human OX1 receptor (Homo sapiens) | 1 nM |
| COc1ncc(C2CCc3c(F)cccc3N(Cc3c(F)cc(Br)cc3F)C2=O)cc1C(C)(F)F (single isomer, unassigned) [Example 12] | human OX1 receptor (Homo sapiens) | 0.398 nM |
| Cc1cc(C)c(S(C)(=O)=O)cc1N1CCc2c(F)cccc2N(Cc2c(F)cc(Br)cc2F)C1=O | human OX1 receptor (Homo sapiens) | 1.26 nM |
| COc1nc(OC)c(C(C)(F)F)cc1N1CCc2c(F)cccc2N(Cc2c(F)cc(Br)cc2F)C1=O | human OX1 receptor (Homo sapiens) | 1.26 nM |
| Cc1cc(C)c(S(C)(=O)=O)cc1N1CCc2ccccc2N(Cc2c(F)cc(Br)cc2F)C1=O | human OX1 receptor (Homo sapiens) | 1.26 nM |
| Cc1ncc(N2CCc3c(F)cccc3N(Cc3c(F)cc(Br)cc3F)C2=O)cc1C(C)(F)F | human OX1 receptor (Homo sapiens) | 0.631 nM |
| COc1ncc(C2CCc3c(F)cccc3N(Cc3c(F)cc(Br)cc3F)C2=O)cc1S(C)(=O)=O (racemic) [Example 19] | human OX1 receptor (Homo sapiens) | 3.98 nM |
| COc1ncc(C2CCc3c(F)cccc3N(Cc3c(F)cc(Br)cc3F)C2=O)cc1S(C)(=O)=O (single isomer, unassigned) [Example 21] | human OX1 receptor (Homo sapiens) | 0.316 nM |

Would you mind giving Ki for every compound in the list below?
1. COCc1cc(F)c(CN2C(=O)C(c3cnc(C)c(C(C)(F)F)c3)CCc3c(F)cccc32)c(F)c1 (single isomer, unassigned)
2. COc1ncc(C2CCc3c(F)cccc3N(Cc3c(F)cc(Br)cc3F)C2=O)cc1C(C)(F)F (single isomer, unassigned) [Example 11]
3. CCCc1cc(F)c(CN2C(=O)N(c3ccc(C)c(S(C)(=O)=O)c3)CCc3c(F)cccc32)c(F)c1
4. COc1ncc(N2CCc3c(F)cccc3N(Cc3c(C)cc(F)cc3F)C2=O)cc1S(C)(=O)=O

1. 1.58 nM
2. 1.58 nM
3. 2 nM
4. 1.26 nM

###

targetUnderTest: human OX2 receptor (Homo sapiens)
Sequence (O43614 1-444): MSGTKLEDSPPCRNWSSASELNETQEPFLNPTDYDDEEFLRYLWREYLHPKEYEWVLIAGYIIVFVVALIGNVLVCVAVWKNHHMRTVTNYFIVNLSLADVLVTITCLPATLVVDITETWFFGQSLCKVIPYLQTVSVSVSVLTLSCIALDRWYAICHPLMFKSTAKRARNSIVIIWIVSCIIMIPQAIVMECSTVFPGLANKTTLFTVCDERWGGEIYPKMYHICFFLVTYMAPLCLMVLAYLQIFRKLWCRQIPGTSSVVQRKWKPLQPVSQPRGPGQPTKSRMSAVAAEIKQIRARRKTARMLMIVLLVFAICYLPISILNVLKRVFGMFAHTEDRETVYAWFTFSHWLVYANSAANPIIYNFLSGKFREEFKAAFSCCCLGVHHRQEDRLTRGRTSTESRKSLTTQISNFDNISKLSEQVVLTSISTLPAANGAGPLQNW
procedureSummary: [3H]-radioligand binding assay, OX2
Parameters: made in house; host or cells: SF21 insect cells (baculovirus; P0 virus made in SF9)
conditionSet: [3H]-radioligand binding, human OX2 membranes; read-out: pKi average OX2 (converted)
attributeMeasured: Ki

| compound | Ki |
| --- | --- |
| COc1ncc(C2CCc3c(F)cccc3N(Cc3c(F)cc(Br)cc3F)C2=O)cc1S(C)(=O)=O (racemic) [Example 19] | > 251 nM |
| Cc1ncc(N2CCc3c(F)cccc3N(Cc3c(F)cc(Br)cc3F)C2=O)cc1C(C)(F)F | 50.1 nM |
| Cc1ncc(C2CCc3c(F)cccc3N(Cc3c(F)cc(Br)cc3F)C2=O)cc1S(C)(=O)=O (single isomer, unassigned) [Example 38] | > 316 nM |
| CSc1cc(N2CCc3c(F)cccc3N(Cc3c(F)cc(Br)cc3F)C2=O)ccc1C | 100 nM |
| COc1ncc(C2CCc3c(F)cccc3N(Cc3cc(C#N)ccc3F)C2=O)cc1C(C)(F)F (single isomer, unassigned) | > 158 nM |
| Cc1ncc(C2CCc3c(F)cccc3N(Cc3c(F)cc(Br)cc3F)C2=O)cc1C(C)(F)F (single isomer, unassigned) [Example 36] | 200 nM |

Would you mind giving Ki for every compound in the list below?
1. Cc1ccc(N2CCc3c(F)cccc3N(Cc3c(F)cc(Br)cc3F)C2=O)cc1S(C)(=O)=O
2. COc1cc(F)c(CN2C(=O)N(c3cnc(OC)c(S(C)(=O)=O)c3)CCc3c(F)cccc32)c(F)c1F
3. COc1ncc(C2CCc3c(F)cccc3N(Cc3c(F)cc(Cl)cc3F)C2=O)cc1S(C)(=O)=O (single isomer, unassigned)

1: > 316 nM; 2: > 251 nM; 3: > 631 nM
